# target.system: RAF proto-oncogene serine/threonine-protein kinase (Homo sapiens)
# Sequence (P04049 whole entry): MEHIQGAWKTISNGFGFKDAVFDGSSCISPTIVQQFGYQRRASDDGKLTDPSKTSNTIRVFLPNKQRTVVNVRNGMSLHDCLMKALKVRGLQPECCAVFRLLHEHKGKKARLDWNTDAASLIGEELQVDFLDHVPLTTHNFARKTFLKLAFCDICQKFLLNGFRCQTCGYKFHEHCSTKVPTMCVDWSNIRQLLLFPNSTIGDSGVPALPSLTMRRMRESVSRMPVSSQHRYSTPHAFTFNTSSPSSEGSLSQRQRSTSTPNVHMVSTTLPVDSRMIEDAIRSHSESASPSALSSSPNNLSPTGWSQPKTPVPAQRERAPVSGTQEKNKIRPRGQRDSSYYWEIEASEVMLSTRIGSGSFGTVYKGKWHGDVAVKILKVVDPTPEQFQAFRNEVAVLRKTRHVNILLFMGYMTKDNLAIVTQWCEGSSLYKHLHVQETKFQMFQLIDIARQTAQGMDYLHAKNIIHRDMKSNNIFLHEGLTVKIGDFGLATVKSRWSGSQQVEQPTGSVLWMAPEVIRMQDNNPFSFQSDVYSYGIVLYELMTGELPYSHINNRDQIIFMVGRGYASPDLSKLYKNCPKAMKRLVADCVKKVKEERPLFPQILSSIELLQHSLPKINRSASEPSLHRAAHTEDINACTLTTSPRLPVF
measurement.name: IC50 (µM)

- compound.structure: "Cc1c[nH]c2nccc(Oc3c(F)cc(Nc4cc(Cl)nc(N)n4)cc3F)c12"
  target.system: "RAF proto-oncogene serine/threonine-protein kinase (Homo sapiens)"
  observed: 1

----------
# target.system: Myosin light chain kinase, smooth muscle (Homo sapiens, UniProt Q15746)
# Sequence (Q15746 whole entry): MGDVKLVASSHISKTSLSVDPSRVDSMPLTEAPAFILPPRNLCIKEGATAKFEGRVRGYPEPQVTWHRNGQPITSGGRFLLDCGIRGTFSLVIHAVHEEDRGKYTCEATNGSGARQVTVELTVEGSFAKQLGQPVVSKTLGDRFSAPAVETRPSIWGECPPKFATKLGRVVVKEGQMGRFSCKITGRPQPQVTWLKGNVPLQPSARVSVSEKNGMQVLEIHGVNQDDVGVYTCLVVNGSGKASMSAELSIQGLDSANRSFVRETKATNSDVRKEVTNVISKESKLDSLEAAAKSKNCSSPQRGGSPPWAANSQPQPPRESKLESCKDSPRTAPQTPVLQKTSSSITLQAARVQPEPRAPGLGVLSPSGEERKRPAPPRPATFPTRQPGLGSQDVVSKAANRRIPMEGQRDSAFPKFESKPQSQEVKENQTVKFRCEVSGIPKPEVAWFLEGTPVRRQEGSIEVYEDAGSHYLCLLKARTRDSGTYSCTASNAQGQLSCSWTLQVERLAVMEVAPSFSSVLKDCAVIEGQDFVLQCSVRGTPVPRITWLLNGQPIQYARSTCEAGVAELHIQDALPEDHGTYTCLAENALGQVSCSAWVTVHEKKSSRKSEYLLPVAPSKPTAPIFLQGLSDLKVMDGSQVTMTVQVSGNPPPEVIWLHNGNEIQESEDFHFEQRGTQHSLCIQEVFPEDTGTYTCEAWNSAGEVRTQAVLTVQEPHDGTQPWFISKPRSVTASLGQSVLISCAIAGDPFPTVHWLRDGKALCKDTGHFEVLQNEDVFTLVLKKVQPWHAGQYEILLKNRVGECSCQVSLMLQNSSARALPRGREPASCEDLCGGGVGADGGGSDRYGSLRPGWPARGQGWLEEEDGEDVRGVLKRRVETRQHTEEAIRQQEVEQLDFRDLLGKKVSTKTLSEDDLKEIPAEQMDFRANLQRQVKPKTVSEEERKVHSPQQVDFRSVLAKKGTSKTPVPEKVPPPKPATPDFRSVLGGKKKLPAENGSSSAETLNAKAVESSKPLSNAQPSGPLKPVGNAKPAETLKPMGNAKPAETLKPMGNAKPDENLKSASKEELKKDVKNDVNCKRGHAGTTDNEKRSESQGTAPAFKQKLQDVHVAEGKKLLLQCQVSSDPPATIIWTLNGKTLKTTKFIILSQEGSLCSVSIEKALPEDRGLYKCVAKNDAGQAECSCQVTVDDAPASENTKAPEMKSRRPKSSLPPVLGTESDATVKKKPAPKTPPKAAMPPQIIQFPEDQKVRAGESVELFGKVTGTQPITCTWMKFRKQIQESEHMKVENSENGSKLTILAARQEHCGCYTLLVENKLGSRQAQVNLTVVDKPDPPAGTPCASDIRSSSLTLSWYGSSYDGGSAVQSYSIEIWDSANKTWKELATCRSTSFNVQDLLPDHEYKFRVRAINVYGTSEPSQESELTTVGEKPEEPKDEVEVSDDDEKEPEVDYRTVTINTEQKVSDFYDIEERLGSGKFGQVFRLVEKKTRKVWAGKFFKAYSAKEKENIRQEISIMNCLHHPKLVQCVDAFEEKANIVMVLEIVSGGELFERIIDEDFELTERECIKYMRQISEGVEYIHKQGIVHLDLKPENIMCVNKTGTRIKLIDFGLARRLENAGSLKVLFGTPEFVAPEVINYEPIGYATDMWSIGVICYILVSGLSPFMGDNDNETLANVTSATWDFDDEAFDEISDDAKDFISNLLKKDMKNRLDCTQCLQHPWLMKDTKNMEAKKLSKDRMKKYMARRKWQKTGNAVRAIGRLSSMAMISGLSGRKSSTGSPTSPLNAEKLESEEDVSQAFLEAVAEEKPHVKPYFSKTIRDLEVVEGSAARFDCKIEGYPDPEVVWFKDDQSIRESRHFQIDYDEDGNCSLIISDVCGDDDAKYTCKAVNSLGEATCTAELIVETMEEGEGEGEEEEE
pIC50: −log10 of the molar value.

- compound: "Cc1c[nH]c2nccc(Oc3c(F)cc(Nc4cc(Cl)nc(N)n4)cc3F)c12 [BAY-549]"
  pIC50: 5.13

----------
# target.system: Rho-associated protein kinase 2 (Homo sapiens, UniProt O75116)
# Sequence (O75116 whole entry): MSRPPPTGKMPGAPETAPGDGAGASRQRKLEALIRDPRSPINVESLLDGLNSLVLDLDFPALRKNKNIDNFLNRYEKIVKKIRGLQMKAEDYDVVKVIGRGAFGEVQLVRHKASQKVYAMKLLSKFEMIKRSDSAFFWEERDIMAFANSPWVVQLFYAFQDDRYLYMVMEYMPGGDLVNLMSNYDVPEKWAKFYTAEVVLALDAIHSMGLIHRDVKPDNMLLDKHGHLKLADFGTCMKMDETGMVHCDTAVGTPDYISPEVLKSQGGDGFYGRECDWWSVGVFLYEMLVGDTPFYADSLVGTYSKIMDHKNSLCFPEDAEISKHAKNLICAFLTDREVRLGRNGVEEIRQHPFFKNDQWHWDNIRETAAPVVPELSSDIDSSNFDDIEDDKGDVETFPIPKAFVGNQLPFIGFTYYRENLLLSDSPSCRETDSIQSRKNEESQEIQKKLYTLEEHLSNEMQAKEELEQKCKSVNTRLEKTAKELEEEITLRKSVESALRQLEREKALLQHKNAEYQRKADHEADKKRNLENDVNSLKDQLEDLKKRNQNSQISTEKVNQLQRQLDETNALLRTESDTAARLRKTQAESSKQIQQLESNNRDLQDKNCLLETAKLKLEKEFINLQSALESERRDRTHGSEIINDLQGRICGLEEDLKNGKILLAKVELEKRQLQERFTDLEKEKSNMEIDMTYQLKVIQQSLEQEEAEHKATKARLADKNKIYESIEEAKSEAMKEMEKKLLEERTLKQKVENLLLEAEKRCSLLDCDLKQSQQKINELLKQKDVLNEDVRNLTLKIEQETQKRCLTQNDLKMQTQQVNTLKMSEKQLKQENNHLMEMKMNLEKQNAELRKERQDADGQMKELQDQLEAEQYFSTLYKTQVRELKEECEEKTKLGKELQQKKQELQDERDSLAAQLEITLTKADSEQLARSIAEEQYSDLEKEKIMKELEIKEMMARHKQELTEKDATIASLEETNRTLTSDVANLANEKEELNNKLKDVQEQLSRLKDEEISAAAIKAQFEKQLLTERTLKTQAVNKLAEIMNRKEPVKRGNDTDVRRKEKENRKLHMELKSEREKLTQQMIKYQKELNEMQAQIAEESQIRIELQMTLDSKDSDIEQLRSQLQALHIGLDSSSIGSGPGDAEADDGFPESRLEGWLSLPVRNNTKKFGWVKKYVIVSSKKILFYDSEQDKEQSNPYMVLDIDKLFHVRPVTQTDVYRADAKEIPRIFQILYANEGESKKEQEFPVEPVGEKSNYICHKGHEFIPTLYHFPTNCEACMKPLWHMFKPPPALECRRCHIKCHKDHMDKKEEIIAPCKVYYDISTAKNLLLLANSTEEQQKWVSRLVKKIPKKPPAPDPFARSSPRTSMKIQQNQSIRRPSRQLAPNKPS
pIC50: −log10 of the molar value.
Kindly return YES if reported pIC50 is no lower than 8; return NO if it is lower.

- compound.structure: "Cc1cc(Nc2ccc(Sc3ccncc3)c(F)c2)nc(N)n1"
  target.system: "Rho-associated protein kinase 2 (Homo sapiens, UniProt O75116)"
  category.label: "NO"
- compound.structure: "Cc1c[nH]c2nccc(Oc3ccc(Nc4cc(-c5ccncc5)nc(N)n4)cc3F)c12"
  target.system: "Rho-associated protein kinase 2 (Homo sapiens, UniProt O75116)"
  category.label: "YES"
- compound.structure: "Nc1nc(Nc2ccc(Oc3ccnc4[nH]ccc34)c(F)c2)cc(C2CCNCC2)n1"
  target.system: "Rho-associated protein kinase 2 (Homo sapiens, UniProt O75116)"
  category.label: "YES"
- compound.structure: "Cc1cc(Nc2ccc(Sc3ccncc3)cc2)nc(N)n1"
  target.system: "Rho-associated protein kinase 2 (Homo sapiens, UniProt O75116)"
  category.label: "NO"
- compound.structure: "Nc1nc(Nc2ccc(Oc3ccnc4[nH]ncc34)c(F)c2)cc(-c2ccncc2)n1"
  target.system: "Rho-associated protein kinase 2 (Homo sapiens, UniProt O75116)"
  category.label: "NO"

----------
Measured IC50 on UniProtKB O75116 follows.

- compound.structure: "Cc1c[nH]c2nccc(Oc3ccc(Nc4ccnc(N)n4)cc3F)c12"
  IC50: "4 nM"
- compound.structure: "Nc1nc(Cl)cc(Nc2ccc(Oc3ccnc4[nH]ccc34)c(F)c2)n1"
  IC50: "9 nM"
- compound.structure: "Cc1cc(Nc2ccc(Oc3ccnc4[nH]ccc34)c(F)c2)nc(N)n1"
  IC50: "11 nM"

----------
# assay.name: in vivo
# condition.details: Wistar, rat, po, 1 mg/kg

- compound.structure: "Cc1c[nH]c2nccc(Oc3c(F)cc(Nc4cc(Cl)nc(N)n4)cc3F)c12"
  bioavailability [%]: 48
- compound.structure: "Nc1nc(Nc2ccc(Oc3ccnc4[nH]ccc34)c(F)c2)cc(-c2ccncc2)n1"
  bioavailability [%]: 18

----------
# target.system: Tyrosine-protein kinase receptor UFO (Homo sapiens, UniProt P30530)
# Sequence (P30530 whole entry): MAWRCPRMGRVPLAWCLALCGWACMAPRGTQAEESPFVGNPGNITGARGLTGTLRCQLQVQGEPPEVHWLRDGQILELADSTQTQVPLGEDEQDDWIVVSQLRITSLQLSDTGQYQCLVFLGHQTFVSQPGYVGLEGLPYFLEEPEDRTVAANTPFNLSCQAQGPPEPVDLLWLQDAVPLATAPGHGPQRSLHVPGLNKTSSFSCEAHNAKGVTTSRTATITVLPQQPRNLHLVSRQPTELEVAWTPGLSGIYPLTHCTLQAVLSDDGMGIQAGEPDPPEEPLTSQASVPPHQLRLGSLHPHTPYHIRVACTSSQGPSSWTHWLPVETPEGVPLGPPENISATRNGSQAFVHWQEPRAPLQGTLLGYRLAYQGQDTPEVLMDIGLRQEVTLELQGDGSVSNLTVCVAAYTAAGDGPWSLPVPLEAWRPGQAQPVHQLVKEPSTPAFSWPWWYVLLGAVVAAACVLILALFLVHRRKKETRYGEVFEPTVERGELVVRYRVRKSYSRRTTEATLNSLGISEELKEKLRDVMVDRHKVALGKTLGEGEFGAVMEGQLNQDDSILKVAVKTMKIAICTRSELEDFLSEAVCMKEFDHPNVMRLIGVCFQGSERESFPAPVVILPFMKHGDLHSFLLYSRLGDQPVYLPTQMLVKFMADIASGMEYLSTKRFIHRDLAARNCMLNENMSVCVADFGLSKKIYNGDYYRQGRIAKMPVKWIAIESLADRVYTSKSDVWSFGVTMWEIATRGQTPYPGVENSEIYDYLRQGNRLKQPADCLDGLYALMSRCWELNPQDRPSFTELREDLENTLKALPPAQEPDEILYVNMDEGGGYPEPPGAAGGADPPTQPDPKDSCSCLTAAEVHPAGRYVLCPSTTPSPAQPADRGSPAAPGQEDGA
pIC50: −log10 of the molar value.

- compound: "Cc1c[nH]c2nccc(Oc3c(F)cc(Nc4cc(Cl)nc(N)n4)cc3F)c12 [BAY-549]"
  target.system: "Tyrosine-protein kinase receptor UFO (Homo sapiens, UniProt P30530)"
  pIC50: 6.00

----------
# assay.name: in vivo
# condition.details: Wistar, rat, iv, 0.5 mg/kg
measurement.name: half-life (min)

- compound.structure: "Cc1c[nH]c2nccc(Oc3ccc(Nc4ccnc(N)n4)cc3F)c12"
  observed: 30
- compound.structure: "Nc1nc(Nc2ccc(Oc3ccnc4[nH]ccc34)c(F)c2)cc(-c2ccncc2)n1"
  observed: 18
- compound.structure: "Cc1c[nH]c2nccc(Oc3c(F)cc(Nc4cc(Cl)nc(N)n4)cc3F)c12"
  observed: 72
- compound.structure: "Cc1c[nH]c2nccc(Oc3c(F)cc(Nc4ccnc(N)n4)cc3F)c12"
  observed: 54

----------
# target.system: Rho-associated protein kinase 2 (Homo sapiens)
pIC50: −log10 of the molar value.
Each entry below lists one item and its recorded pIC50 value.
measurement.name: pIC50

- compound.structure: "Nc1nc(Nc2ccc(Sc3ccncc3)c(F)c2)cc(-c2ccncc2)n1"
  observed: 7.96
- compound.structure: "CCc1c[nH]c2nccc(Oc3ccc(Nc4cc(-c5ccncc5)nc(N)n4)cc3F)c12"
  observed: 8.10
- compound.structure: "Nc1nc(Nc2ccc(Oc3ccnc4[nH]ccc34)c(F)c2)cc(N2CCNCC2)n1"
  observed: 8.22
- compound.structure: "Nc1nc(Nc2ccc(Oc3ccnc4[nH]ccc34)c(F)c2)cc(-c2cccnc2)n1"
  observed: 8.00
- compound.structure: "Nc1nccc(Nc2ccc(Oc3ccnc4[nH]ccc34)c(F)c2)n1"
  observed: 7.77
